These entries and their values trace back to ChEMBL document CHEMBL2321862.

Target: SH2 domain-containing protein 1A (Homo sapiens) (UniProt O60880)
Sequence (O60880 whole entry, the tested form may be a part): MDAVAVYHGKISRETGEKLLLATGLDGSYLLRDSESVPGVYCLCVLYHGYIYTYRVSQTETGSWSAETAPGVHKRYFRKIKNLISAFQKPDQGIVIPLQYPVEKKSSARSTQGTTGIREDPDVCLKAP
Test: Inhibition of recombinant 6-His-tagged SLAM associated protein SH2 domain (unknown origin) expressed in Escherichia coli BL21(DE3) binding to biotinyl-KKSLTIpYAQVQK-NH2 attached to NeutrAvidin-coated plates using p-nitrophenyl phosphate as substrate at 10 uM after 1 hr relative to control
outcome measure: fold change (FC)

Cc1c(C)c(S(=O)(=O)NC(=N)NCCC[C@H](NC(=O)[C@H](Cc2ccc3c(c2)COP(=O)(O)O3)NC(=O)OCC2c3ccccc3-c3ccccc32)C(N)=O)c(C)c2c1OC(C)(C)C2 :: 0.94
COC(=O)[C@H](Cc1ccc2c(c1)COP(=O)(O)O2)NC(=O)[C@H](COC(C)(C)C)NC(=O)OCC1c2ccccc2-c2ccccc21 :: 0.85
COC(=O)[C@H](Cc1ccc2c(c1)COP(=O)(O)O2)NC(=O)[C@H](CCCNC(=N)NS(=O)(=O)c1c(C)c(C)c2c(c1C)CC(C)(C)O2)NC(=O)OCC1c2ccccc2-c2ccccc21 :: 0.75
